Data origin, for the record: paper PMC11956012

# PROCEDURE_TEXT: Intrinsic clearance, rat hepatocytes
# Assay type: in vitro ADME
# RUN_CONDITIONS: hepatocytes, Table 3, read-out: Rat Hepatocytes CL
Quick reference: hepatocyte CLint of the listed items.

Examples with their reported hepatocyte CLint follow.
STRUCTURE	hepatocyte CLint
CSc1ccccc1[C@H]1CCCN1C(=O)CNC(=O)N(Cc1ccc(N)c(Cl)c1)Cc1nnn(C)n1	13 µL/min/1e6 cells
Cn1nnc(CN(Cc2ccc(N)c(Cl)c2)C(=O)NCC(=O)N2CCC[C@@H]2c2ccccc2Br)n1	< 8 µL/min/1e6 cells

Now consider the entry below.
# input I am curious: what hepatocyte CLint value has been reported for CSc1ccccc1[C@H]1CCCN1C(=O)CNC(=O)N(Cc1cnc(N)nc1)Cc1ncc(C)s1 ?
# output 12 µL/min/1e6 cells

* * *

# PROCEDURE_TEXT: Human plasma protein binding
# Assay type: in vitro ADME
MEASUREMENT_LABEL: recovery (%)
Response body: numeric value in %, unit text excluded.

# input I am curious: what recovery value has been reported for CSc1ccccc1[C@H]1CCCN1C(=O)CNC(=O)N(Cc1ccc(N)c(Cl)c1)Cc1nnn(C)n1 ?
# output 88

* * *

# PROCEDURE_TEXT: Intrinsic clearance, human hepatocytes
# Type: in vitro ADME
# RUN_CONDITIONS: hepatocytes, read-out: Human Hepatocytes t1/2
Quick reference: half-life of the listed items.
Response body: numeric value in h, unit text excluded.

Examples with their reported half-life follow.
MOLECULE	UNIT_ABBREV	half-life
Cn1nnc(CN(Cc2ccc(N)c(Cl)c2)C(=O)NCC(=O)N2CCC[C@@H]2c2ccccc2Br)n1 [Compound 10]	h	1.42
CSc1ccccc1[C@H]1CCCN1C(=O)CNC(=O)N(Cc1ccc(N)c(Cl)c1)Cc1nnn(C)n1 [Compound 11]	h	1.23

Now consider the entry below.
# input I am curious: what half-life value has been reported for CSc1ccccc1[C@H]1CCCN1C(=O)CNC(=O)N(Cc1cnc(N)nc1)Cc1ncc(C)s1 [Compound 12] ?
# output 1.57

* * *

# ASSAY_TARGET: Cyp B (Homo sapiens)
# PROCEDURE_TEXT: biochemical
MEASUREMENT_LABEL: Kd (µM)
Response body: numeric value in µM, unit text excluded.

Examples with their reported Kd follow.
STRUCTURE	ASSAY_TARGET	Kd, µM
Cn1nnc(CN(Cc2ccc(N)c(Cl)c2)C(=O)NCC(=O)N2CCC[C@@H]2c2ccccc2Br)n1	Cyp B (Homo sapiens)	0.035
CSc1ccccc1[C@H]1CCCN1C(=O)CNC(=O)N(Cc1cnc(N)c(Cl)c1)Cc1nnc(C)s1	Cyp B (Homo sapiens)	0.092

# input I am curious: what Kd value has been reported for C#CCN(Cc1cc(F)c(N)c(F)c1)C(=O)NCC(=O)N1CCC[C@@H]1c1ccccc1SC ?
# output 3.74

# input I am curious: what Kd value has been reported for CSc1ccccc1[C@H]1CCCN1C(=O)CNC(=O)N(Cc1cc(F)c(N)c(F)c1)Cc1nnn(C)n1 ?
# output 0.2

# input I am curious: what Kd value has been reported for CSc1ccccc1[C@H]1CCCN1C(=O)CN1C(=O)CN(Cc2cc(F)c(N)c(F)c2)C1=O ?
# output 3.8

# input I am curious: what Kd value has been reported for CSc1ccccc1[C@H]1CCCN1C(=O)CNC(=O)N(Cc1cnc(N)nc1)Cc1nnc(C)s1 ?
# output 0.184

* * *

# ASSAY_TARGET: Cyp A (Homo sapiens, UniProt P62937)
# Sequence (P62937 whole entry): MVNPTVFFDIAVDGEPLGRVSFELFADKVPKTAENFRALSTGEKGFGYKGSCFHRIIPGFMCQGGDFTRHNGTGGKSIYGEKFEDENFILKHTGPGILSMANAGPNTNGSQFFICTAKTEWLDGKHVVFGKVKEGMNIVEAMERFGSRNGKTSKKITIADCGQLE
# PROCEDURE_TEXT: SPR kinetic titration, Cyp A
MEASUREMENT_LABEL: Kd

STRUCTURE	Kd
CSc1ccccc1[C@H]1CCCN1C(=O)CN1C(=O)CN(Cc2cc(F)c(N)c(F)c2)C1=O	6.7 µM

Now consider the entry below.
# input I am curious: what Kd value has been reported for CSc1ccccc1[C@H]1CCCN1C(=O)CNC(=O)N(Cc1ccc2c(c1)[C@H]1C[C@@H](N2)[C@H](O)CO1)Cc1nnn(C)n1 ?
# output 0.006 µM

* * *

# ASSAY_TARGET: UniProtKB P23284
# PROCEDURE_TEXT: biochemical
Quick reference: pKd of the listed items.
When answering, recall that pKd equals minus log10 of the concentration in mol/L, and write that number alone.

Examples with their reported pKd follow.
STRUCTURE	pKd
CSc1ccccc1[C@H]1CCCN1C(=O)CNC(=O)N(Cc1ccc(N)cc1)Cc1nnn(C)n1	7.92
CSc1ccccc1[C@H]1CCCN1C(=O)CN1C(=O)N(Cc2ccc(N)c(Cl)c2)CC1=NNC(C)=O	5.35

# input I am curious: what pKd value has been reported for CSc1ccccc1[C@H]1CCCN1C(=O)CNC(=O)N(Cc1cc(F)c(N)c(F)c1)Cc1cn(C)nn1 ?
# output 6.20

* * *

# PROCEDURE_TEXT: Intrinsic clearance, human hepatocytes
# Format: in vitro ADME
# RUN_CONDITIONS: cryopreserved hepatocytes, Table 3, read-out: Human Hepatocytes CL
MEASUREMENT_LABEL: hepatocyte CLint

# input I am curious: what hepatocyte CLint value has been reported for CSc1ccccc1[C@H]1CCCN1C(=O)CNC(=O)N(Cc1ccc2c(c1)[C@H]1C[C@@H](N2)[C@H](O)CO1)Cc1nnn(C)n1 [Compound 3] ?
# output < 8 µL/min/1e6 cells

* * *

Quick reference: microsomal CLint of the listed items.
# PROCEDURE_TEXT: Intrinsic clearance, human liver microsomes
# Type: in vitro ADME
# RUN_CONDITIONS: Table 3, read-out: Human Liver microsomes CL
The reply should read as a number followed by its unit.

Examples with their reported microsomal CLint follow.
STRUCTURE	MEASUREMENT_LABEL	ASSAY_VALUE
CSc1ccccc1[C@H]1CCCN1C(=O)CNC(=O)N(Cc1ccc2c(c1)[C@H]1C[C@@H](N2)[C@H](O)CO1)Cc1nnn(C)n1	microsomal CLint	169 µL/min/mg
CSc1ccccc1[C@H]1CCCN1C(=O)CNC(=O)N(Cc1ccc(N)c(Cl)c1)Cc1nnn(C)n1	microsomal CLint	558 µL/min/mg
CSc1ccccc1[C@H]1CCCN1C(=O)CNC(=O)N(Cc1cnc(N)nc1)Cc1ncc(C)s1	microsomal CLint	604 µL/min/mg

Now consider the entry below.
# input I am curious: what microsomal CLint value has been reported for Cn1nnc(CN(Cc2ccc(N)c(Cl)c2)C(=O)NCC(=O)N2CCC[C@@H]2c2ccccc2Br)n1 ?
# output 344 µL/min/mg

* * *

# System: CYP3A
# PROCEDURE_TEXT: Cytochrome P450 inhibition CYP3A
# Type: in vitro ADME
# RUN_CONDITIONS: human, probe midazolam; single point at 10 μM; substrate midazolam; read-out: CYP3A midazolam % inhibition
MEASUREMENT_LABEL: inhibition at 10 µM (%)
Response body: numeric value in %, unit text excluded.

# input I am curious: what inhibition at 10 µM value has been reported for CSc1ccccc1[C@H]1CCCN1C(=O)CNC(=O)N(Cc1ccc(N)c(Cl)c1)Cc1nnn(C)n1 ?
# output 73

* * *

# ASSAY_TARGET: Cyp B (Homo sapiens, UniProt P23284)
# Sequence (P23284 32-216 limits assumed): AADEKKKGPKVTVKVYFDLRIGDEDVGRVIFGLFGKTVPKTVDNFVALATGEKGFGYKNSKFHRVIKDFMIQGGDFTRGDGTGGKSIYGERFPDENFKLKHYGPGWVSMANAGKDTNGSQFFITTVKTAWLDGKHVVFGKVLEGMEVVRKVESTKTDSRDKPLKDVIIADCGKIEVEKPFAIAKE
# PROCEDURE_TEXT: biochemical
# RUN_CONDITIONS: Kd Cyp B, SPR-derived dissociation constant, 25 °C
MEASUREMENT_LABEL: Kd (nM)
Response body: numeric value in nM, unit text excluded.

Examples with their reported Kd follow.
STRUCTURE	MEASUREMENT_LABEL	UNIT_ABBREV	ASSAY_VALUE
CSc1ccccc1[C@H]1CCCN1C(=O)CNC(=O)N(Cc1ccc(N)c(Cl)c1)Cc1nnn(C)n1	Kd	nM	12
CSc1ccccc1[C@@H]1CCCN1C(=O)CNC(=O)N(Cc1ccc2c(c1)[C@@H]1C[C@@H](N2)[C@H](O)CO1)Cc1nnn(C)n1	Kd	nM	420
CSc1ccccc1[C@H]1CCCN1C(=O)CNC(=O)N(Cc1ccc2c(c1)[C@H]1C[C@@H](N2)[C@H](O)CO1)Cc1nnn(C)n1	Kd	nM	2

Now consider the entry below.
# input I am curious: what Kd value has been reported for CSc1ccccc1[C@H]1CCCN1C(=O)CNC(=O)N(Cc1cnc(N)nc1)Cc1ncc(C)s1 ?
# output 88

* * *

# PROCEDURE_TEXT: Intrinsic clearance, human hepatocytes
# Format: in vitro ADME
# RUN_CONDITIONS: hepatocytes, Table 3, read-out: Human Hepatocytes CL
MEASUREMENT_LABEL: hepatocyte CLint (µL/min/1e6 cells)
Response body: numeric value in µL/min/1e6 cells, unit text excluded.

Examples with their reported hepatocyte CLint follow.
STRUCTURE	ASSAY_VALUE
CSc1ccccc1[C@H]1CCCN1C(=O)CNC(=O)N(Cc1cnc(N)nc1)Cc1ncc(C)s1	11
Cn1nnc(CN(Cc2ccc(N)c(Cl)c2)C(=O)NCC(=O)N2CCC[C@@H]2c2ccccc2Br)n1	12

# input I am curious: what hepatocyte CLint value has been reported for CSc1ccccc1[C@H]1CCCN1C(=O)CNC(=O)N(Cc1ccc(N)c(Cl)c1)Cc1nnn(C)n1 ?
# output 13
